Where do the numbers come from? From patent US20220348685A1.

study-system: T1, human ALK7-EK-Fc comprising protein (human, UniProt Q8NER5 22-113)
T1 construct: also called ALK7-Fc comprising protein; Human ALK7-Fc comprising protein; not shown: 'EK' segment between ALK7 and Fc; Fc portion
T1 sequence: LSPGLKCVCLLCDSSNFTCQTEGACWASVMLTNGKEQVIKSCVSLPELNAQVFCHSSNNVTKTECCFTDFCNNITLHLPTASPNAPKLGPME
test-protocol: SPR (Biacore T100/T200), antibody captured on FAB chip, ALK7-Fc protein as analyte, 1:1 model
quantity-name: Kd (nM)
Lab book: enter the figure in nM, no units written.

INPUT: Quick one: Kd for M01 (antibody, V domains shown, Kappa light chain is implied by the anti-kappa reagent and KappaSelect; In SPR the antibody was captured on a custom FAB chip; also called ALK7 mAb M01) VH: QLQLQESGPGLVKPSETLSLTCTVSGGSISSSAYYWAWIRQPPGKGLEWIGSIYLSGSTTYNPSLKSRVTISVDTSKNQFSLKLSSVTAADTAVYYCARDGRYQSRSPDYYYGMDVWGQGTTVTVSS VL: EIVLTQSPGTLSLSPGERATLSCRASQSVSDNYLAWYQQKPGQAPRLLIYGASNIATGIPDRFSGSGSGTDFTLTISRLEPEDFAVYYCASVFSYPFTFGGGTKVEIK ?
OUTPUT: 1
